target: JAK1 (recombinant purified GST-tagged catalytic domain) (Homo sapiens (Human), UniProt P23458); test: biochemical;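 further: biochemical assay with HTRF read-out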
Sequence (P23458 875-1153): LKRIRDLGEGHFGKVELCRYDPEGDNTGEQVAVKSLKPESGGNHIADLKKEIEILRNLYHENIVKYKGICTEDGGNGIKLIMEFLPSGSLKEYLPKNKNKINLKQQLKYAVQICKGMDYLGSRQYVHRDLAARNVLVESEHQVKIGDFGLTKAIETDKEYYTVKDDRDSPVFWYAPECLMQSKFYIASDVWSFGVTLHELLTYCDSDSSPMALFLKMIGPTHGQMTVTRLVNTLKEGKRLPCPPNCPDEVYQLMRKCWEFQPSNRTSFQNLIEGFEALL
Hi there, I'd appreciate the recorded IC50 for every entry that follows.
Answers are plain numbers, in nM.

Recorded results for 5 compounds are shown here.
1) CN(C)[C@@H]1CC[C@H](n2cc(C(N)=O)c(Nc3ccc(Cl)c(F)c3)n2)[C@@H](C#N)C1 (single isomer, unassigned) :: 7
2) N#C[C@@H]1C[C@@H](NC2CCC2)CC[C@H]1n1cc(C(N)=O)c(Nc2ccc(C(F)(F)F)cc2)n1 (single isomer, unassigned) :: 2
3) N#C[C@H]1CCCC[C@@H]1n1cc(C(N)=O)c(Nc2ccc(S(=O)(=O)N3CCC4(CC3)OCCO4)cc2)n1 (single isomer, unassigned) :: 0.9
4) C[C@H](N[C@@H]1CC[C@H](n2cc(C(N)=O)c(Nc3ccc(Cl)c(F)c3)n2)[C@@H](C#N)C1)C1CC1 (single isomer, unassigned) :: 8
5) N#C[C@H]1CC(N2CC[C@H](F)C2)CC[C@@H]1n1cc(C(N)=O)c(Nc2ccc(S(=O)(=O)C(F)(F)F)cc2)n1 (single isomer, unassigned) :: 1

Dear colleague, could you send me IC50 for each of the items below? Thanks.
1. N#C[C@H]1C[C@@H](NCC2(O)CC2)CC[C@@H]1n1cc(C(N)=O)c(Nc2ccc(C(F)(F)F)cc2)n1 (single isomer, unassigned)
2. C[C@H](N[C@H]1CC[C@H](n2cc(C(N)=O)c(Nc3ccc(OC(F)F)nc3)n2)[C@@H](C#N)C1)C1CC1 (single isomer, unassigned)
3. N#C[C@H]1C[C@@H](O)CC[C@@H]1n1cc(C(N)=O)c(Nc2ccc(C(F)F)nc2)n1 (single isomer, unassigned)

Key:
1: 0.45; 2: 5; 3: 8

Dear colleague, could you send me IC50 for each of the items below? Thanks.
1. C=C[C@]1(O)CC[C@H](n2cc(C(N)=O)c(Nc3ccc(Cl)cc3)n2)[C@@H](C#N)C1 (single isomer, unassigned)
2. N#C[C@H]1C[C@@H](C(=O)NC2COC2)CC[C@@H]1n1cc(C(N)=O)c(Nc2ccc(Cl)cc2)n1 (single isomer, unassigned)
3. N#C[C@H]1C[C@H](O)CCC1n1cc(C(N)=O)c(Nc2ccccc2)n1 (mixture of isomers)
4. COc1cccc(N2CCN(S(=O)(=O)c3ccc(Nc4nn([C@H]5CCCC[C@@H]5C#N)cc4C(N)=O)cc3)CC2)c1 (single isomer, unassigned)
5. N#C[C@H]1C[C@@H](C(=O)N2CC3(COC3)C2)CC[C@@H]1n1cc(C(N)=O)c(Nc2ccc(Cl)cc2)n1 (single isomer, unassigned)

Key:
1: 3; 2: 33; 3: 6; 4: 9; 5: 43

Dear colleague, could you send me IC50 for each of the items below? Thanks.
1. N#C[C@H]1C[C@@H](N2CCC2)CC[C@@H]1n1cc(C(N)=O)c(Nc2ccc(OC(F)F)cc2)n1 (single isomer, unassigned) [Example 28-118]
2. N#C[C@@H]1CCCC[C@H]1n1cc(C(N)=O)c(Nc2ccc(S(=O)(=O)N3CCC(Cc4ccccc4)CC3)cc2)n1 (single isomer, unassigned)
3. N#C[C@H]1C[C@H](NCc2ccccc2)CC[C@@H]1n1cc(C(N)=O)c(Nc2ccnc(F)c2)n1 (single isomer, unassigned)

Key:
1: 0.5; 2: 30; 3: 2

Dear colleague, could you send me IC50 for each of the items below? Thanks.
1. C[C@](O)(c1ccc(Nc2nn([C@H]3CCCC[C@@H]3C#N)cc2C(N)=O)cn1)C(F)(F)F (single isomer, unassigned)
2. N#C[C@@H]1CCCCC1n1cc(C(N)=O)c(Nc2ccc(S(=O)(=O)CC(F)(F)F)cc2)n1 (single isomer, unassigned) [Example 43-7]
3. N#C[C@@H]1CC(CN)CCC1n1cc(C(N)=O)c(Nc2ccc(F)cc2)n1 (mixture of isomers)
4. N#C[C@H]1C[C@H](O)CC[C@@H]1n1cc(C(N)=O)c(Nc2ccc([C@H](O)C(F)(F)F)cc2)n1 (single isomer, unassigned)
5. CS(=O)(=O)CCNC1CC[C@H](n2cc(C(N)=O)c(Nc3ccc(S(=O)(=O)C(F)(F)F)cc3)n2)[C@@H](C#N)C1 (single isomer, unassigned)
6. N#C[C@H]1C[C@H](O)CC[C@@H]1n1cc(C(N)=O)c(Nc2ccc(OC(F)(F)F)cc2)n1 (single isomer, unassigned)
7. N#C[C@H]1C[C@H](O)CCC1n1cc(C(N)=O)c(Nc2ccnc(F)c2)n1 (single isomer, unassigned) [Example 25-21]

Key:
1: 2; 2: 2; 3: 12; 4: 0.25; 5: 0.35; 6: 6; 7: 1
